Provenance of the data: PubChem BioAssay (NCATS)

run_description: qHTS of pediatric cancer cell lines to identify multiple opportunities for drug repurposing: Confirmatory screen for MG 63 (6-TG R) cells (AID 1347119); also: nearly all actives have a fitted effect of over 55% in size
assay_context: MG-63 (6-TG resistant) osteosarcoma viability; series mostly up to 45.9 µM
Results filed as inconclusive are left out. Activity calls are given as the source filed them. Calls follow the shape of the dose curve; as a rule, active = well fitted cell-killing curve with a large enough effect; inconclusive = small, poorly fitted or top-dose-only effect, or effect the other way; inactive = no such curve, though single readings can be large or run the other way.
Lab note: assign the record to one of active, inactive

[Q] In this assay, the call recorded for CC1(C)CCC[C@@]2(C)[C@@H]1CC[C@@]1(C)OC(=O)C[C@H]21 was what?
[A] inactive

[Q] In this assay, the call recorded for CC[C@]1(O)C[C@@H]2CN(CCc3c([nH]c4ccccc34)[C@@](C(=O)OC)(c3cc4c(cc3OC)N(C=O)[C@@H]3C45CCN4CC=C[C@](CC)([C@H]45)[C@@H](OC(C)=O)[C@]3(O)C(=O)OC)C2)C1 (some centres undefined) was what?
[A] inactive

[Q] In this assay, the call recorded for Cc1[nH]c(C=C2C(=O)Nc3ccc(S(=O)(=O)Cc4c(Cl)cccc4Cl)cc32)c(C)c1C(=O)N1CCC[C@H]1CN1CCCC1 was what?
[A] active

[Q] In this assay, the call recorded for COc1ncc(-c2ccc3nccc(-c4ccnnc4)c3c2)cc1NS(=O)(=O)c1ccc(F)cc1F was what?
[A] active
